System: normal human dermal fibroblasts (HDFs)
Test Summary: CellTiter-Glo viability assay, normal human dermal fibroblasts
Assay type: cell-based
Study Conditions: 50% viability after 72-hr incubation, n = 3, read-out: HDF CC50

>  <Compound>
CC[C@H](C)[C@H]1C(=O)N[C@@H](C)C(=O)N(C)[C@@H](CC(C)C)C(=O)N[C@@H](Cc2ccc(OC)cc2)C(=O)N(C)[C@H](C)C(=O)N[C@H](C)[C@H](N(C)C(=O)[C@H](CC(C)C)N(C)C(=O)[C@H](C)N(C)C(=O)[C@H](OC(=O)[C@H](C(C)C)N(C)C)C(C)C)C(=O)N(C)[C@@H](C)C(=O)N1C [Peptide 16a]

>  <CC50 [nM]>
4.6

$$$$

----------
Test Summary: CellTiter-Glo viability assay, normal human dermal fibroblasts
Type: cell-based
Study Conditions: normal human dermal fibroblasts (HDFs), 50% viability after 72-hr incubation, n = 3, read-out: HDF CC50
Positions of bridges follow the written chain, without caps; N, C: chain ends. Non-standard residues stand in square brackets, D forms with d. Residues, ends and D or L forms follow the SMILES beside them. *: point of attachment. NMe2Val = CC(C)[C@@H](C(=O)*)N(C)C; NMeI = CC[C@H](C)[C@H](NC)C(=O)O; NMeT = CN[C@H](C(=O)O)[C@@H](C)O; NMeL = CN[C@@H](CC(C)C)C(=O)O; dHiv = CC(C)[C@@H](O)C(=O)O; NMeS = CN[C@@H](CO)C(=O)O; dNMeA = CN[C@H](C)C(=O)O

>  <Molecule>
CC[C@H](C)[C@H]1C(=O)N[C@@H](C)C(=O)N(C)[C@@H](CC(C)C)C(=O)N[C@@H](Cc2ccc(OC)cc2)C(=O)N(C)[C@H](C)C(=O)O[C@H](C)[C@H](N(C)C(=O)[C@H](CC(C)C)N(C)C(=O)[C@H](COC)N(C)C(=O)[C@H](OC(=O)[C@H](C(C)C)N(C)C)C(C)C)C(=O)N(C)[C@@H](COC)C(=O)N1C [Coibamide A (1a), coibamide A] (NMe2Val-[dHiv][NMeS](Me)[NMeL][NMeT][NMeS](Me)[NMeI]A[NMeL]Y(Me)[dNMeA]; ester 4-C)

>  <CC50 at 72 h>
6.7 nM

$$$$

----------
CC50 overview
Test system: normal human dermal fibroblasts (HDFs)
Test Summary: CellTiter-Glo viability assay, normal human dermal fibroblasts
Type: cell-based
Study Conditions: 50% viability after 72-hr incubation, n = 3, read-out: HDF CC50
Assay Metric: CC50 (nM)

>  <Molecule>
CC[C@H](C)[C@H]1C(=O)N[C@@H](C)C(=O)N(C)[C@@H](CC(C)C)C(=O)N[C@@H](Cc2ccc(OC)cc2)C(=O)N(C)[C@H](C)C(=O)N[C@H](C)[C@H](N(C)C(=O)[C@H](CC(C)C)N(C)C(=O)[C@H](COC)N(C)C(=O)[C@H](OC(=O)[C@H](C(C)C)N(C)C)C(C)C)C(=O)N(C)[C@@H](COC)C(=O)N1C [Peptide 16b]

>  <Observed Measurement>
3.9

$$$$
>  <Molecule>
CC[C@H](C)[C@H]1C(=O)N[C@@H](C)C(=O)N(C)[C@@H](CC(C)C)C(=O)N[C@@H](Cc2ccc(-c3ccccc3)cc2)C(=O)N(C)[C@H](C)C(=O)N[C@H](C)[C@H](N(C)C(=O)[C@H](CC(C)C)N(C)C(=O)[C@H](COC)N(C)C(=O)[C@H](OC(=O)[C@H](C(C)C)N(C)C)C(C)C)C(=O)N(C)[C@@H](COC)C(=O)N1C [Peptide 16c]

>  <Observed Measurement>
0.38

$$$$
